Recorded values, source patent US20220089784A1.

Biological target: T1, BoNT/B light chain (recombinant) (Clostridium botulinum, UniProt P10844 1-441)
T1 sequence: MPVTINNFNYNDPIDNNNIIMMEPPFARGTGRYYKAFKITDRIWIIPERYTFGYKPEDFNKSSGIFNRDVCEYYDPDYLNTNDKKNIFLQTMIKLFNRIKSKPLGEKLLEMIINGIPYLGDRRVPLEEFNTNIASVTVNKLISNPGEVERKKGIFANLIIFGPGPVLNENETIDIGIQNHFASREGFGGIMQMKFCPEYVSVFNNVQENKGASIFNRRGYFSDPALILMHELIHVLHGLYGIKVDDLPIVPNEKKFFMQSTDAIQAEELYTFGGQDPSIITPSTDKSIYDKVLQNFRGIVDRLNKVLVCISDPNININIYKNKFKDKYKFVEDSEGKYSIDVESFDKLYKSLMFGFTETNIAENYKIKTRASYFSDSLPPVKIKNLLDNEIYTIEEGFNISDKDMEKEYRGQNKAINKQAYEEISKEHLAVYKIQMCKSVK
Assay: yeast scFv FACS
experimentalReadout: pKd
# pKd: negative log10 of molar concentration; output just the value

State, in one line, measured pKd of 18A6 scFv (scFv, mouse) scFv: EVQLQQSGPELVKPGASVKISCKASGYTFTDNYINWVKQRPGQGLEWIGWIYPGSGNTKYNEKFKGKATLTVDTSSNTAYMQLTGLASDDSAVYFCARVNFYVSWDYWGQGTSVTVSSVDLKSGGSTSGSGKPGSGEGSSGSAREIVLTQSPAIMSASPGEKVTMTCSASSSISYMHWFQQKPGMSPKRRIFDTSKLASGVPARFSGSGSGTSYSLTISSMEAEDAGTYYCHQRSSYPFTFGGGTKLELK
8.38

State, in one line, measured pKd of 31G2 scFv (scFv, mouse) scFv: QVQLQQSGAELVKPGASVKLSCTASGFNIKDTYMHWVKQRPEQGLEWIGRIDPEDGETKYAPKFQGKATITADTSSNTAYLQLSSLTSEDTAVYYCARWLLYYYAMDYWGQGTSVTVSAVDLKSGGSTSGSGKPGSGEGSSGSARQIVLTQSPALMAASPGEKVTITCSVSSSISSSNLHWYQQKSETSPKPWIYGTSNLASGVPARFSGSGSGTSYSLTISRVEAEDAATYYCHQRSSYPLTFGAGTKLEIK
8.48

State, in one line, measured pKd of 18E5 scFv (scFv, mouse) scFv: EVQLQESGPELVKPGASVKISCKASGYTFTDHNMDWVKQSLGKSLEWIGDINPNNGGAVYNQNFKGKATLTVDKSSSTAYMELRSLTSEDTAVYYCARYGYYGYFDYWGQGTTLTVSSVDLKSGGSTSGSGKPGSGEGSSGSARQIVLTQSPAIMSASPGEKVTMTCRASSSVSSSYLHWYQQKPGSSPKLWIYSTSNLASGVPARFSGSGSGTSYSLTISSVEAEDAATYYCQQYDSSPSTFGAGTKLEIK
9.00

State, in one line, measured pKd of 16D5 scFv (scFv, mouse) scFv: EVKLVESGAELVRPGASVKLSCTPSGFNIKDDYMHWVKQRPEQGLEWIGRIDPANGNTRYAPKFQDKATLTADTSSNTAYLHLTSLTSEDTAVYYCARSYYRAWFDYWGQGTLVTVSSVDLKSGGSTSGSGKPGSGEGSSGSARQIVLTQSPATLSVTPGDSVSLSCRASQSISNNLHWYQQKSHESPRLLIKYASQSISGIPSRFSGSGSGTDFTLSINSVETEDFGMYFCQQSNSWPLTFGAGTRLEIK
8.74
